method notes: Approximate solubility, solvent addition method, visual assessment
Assay type: physicochemical
conditions used: water, thermodynamic from solid, Water; read-out: Solubility

molecule	Solubility
C=CC(=O)N1CCC[C@@H](c2c(F)cc(C(N)=O)c3[nH]c4c(c23)CCCCC4)C1 [starting material]	< 600 µg/mL

----------
method notes: Solubility testing in aqueous media at various pH (Form III)
Assay type: physicochemical
conditions used: thermodynamic from solid; Water (pH 5.0); 37° C.; 4 h
readout: solubility at 4 h (µg/mL)

1. C=CC(=O)N1CCC[C@@H](c2c(F)cc(C(N)=O)c3[nH]c4c(c23)CCCCC4)C1 0.6

----------
method notes: Phase 1 single ascending dose plasma pharmacokinetics
Assay type: in vivo, human
conditions used: both sexes, human, plasma, oral, 5 mg, Cohort 1, 5 mg single dose, fed, mean

compound	AUC(0-inf) [ng·h/mL]
C=CC(=O)N1CCC[C@@H](c2c(F)cc(C(N)=O)c3[nH]c4c(c23)CCCCC4)C1 [Compound 1]	62.1

----------
method notes: Solubility testing in vehicle, HPLC (Form III)
Type: physicochemical
conditions used: oil or lipid, thermodynamic from solid; Capryol 90; RT; 24 h; pH 6.8; loading 50 mg/mL
readout: solubility at 24 h (mg/mL)

1) C=CC(=O)N1CCC[C@@H](c2c(F)cc(C(N)=O)c3[nH]c4c(c23)CCCCC4)C1 47.9

----------
method notes: Phase 1 single ascending dose plasma pharmacokinetics
Type: in vivo, human
conditions used: both sexes, human, plasma, oral, 200 mg, Cohort 6, 200 mg single dose, fed, median; read-out: T1/2 (converted)
readout: half-life (h)

1) C=CC(=O)N1CCC[C@@H](c2c(F)cc(C(N)=O)c3[nH]c4c(c23)CCCCC4)C1 4.5

----------
method notes: Phase 1 food effect on pharmacokinetics
Type: in vivo, human
conditions used: human, plasma, oral, 15 mg, Cohorts 2 and 7, 15 mg single dose, Moderate-Fat, mean
readout: Cmax (ng/mL)

1. C=CC(=O)N1CCC[C@@H](c2c(F)cc(C(N)=O)c3[nH]c4c(c23)CCCCC4)C1 101

----------
method notes: Solubility testing in aqueous media at various pH (Form III)
Assay type: physicochemical
conditions used: pH 7.4 buffer (KH2PO4/NaOH), aqueous buffer, thermodynamic from solid; pH 7.4 Buffer; RT; 24 h
readout: solubility at 24 h (µg/mL)

1. C=CC(=O)N1CCC[C@@H](c2c(F)cc(C(N)=O)c3[nH]c4c(c23)CCCCC4)C1 0.8

----------
method notes: Approximate solubility, solvent addition method, visual assessment
Type: physicochemical
conditions used: acetonitrile, organic solvent or mixture, thermodynamic from solid, Acetonitrile; read-out: Solubility
readout: Solubility

1) C=CC(=O)N1CCC[C@@H](c2c(F)cc(C(N)=O)c3[nH]c4c(c23)CCCCC4)C1 ~1700 µg/mL

----------
method notes: Solubility testing in vehicle, HPLC (Form III)
Format: physicochemical
conditions used: aqueous with cosolvent or surfactant or cyclodextrin, thermodynamic from solid; 5% PVP VA64; RT; 24 h; pH 4.6; loading 15 mg/mL
readout: solubility at 24 h (µg/mL)

compound	assay value
C=CC(=O)N1CCC[C@@H](c2c(F)cc(C(N)=O)c3[nH]c4c(c23)CCCCC4)C1 [Compound 1]	36

----------
method notes: Solubility testing in vehicle, HPLC (Form III)
Type: physicochemical
conditions used: aqueous with cosolvent or surfactant or cyclodextrin, thermodynamic from solid; Labrasol; RT; 24 h; pH 6.9; loading 50 mg/mL
readout: solubility at 24 h

1) C=CC(=O)N1CCC[C@@H](c2c(F)cc(C(N)=O)c3[nH]c4c(c23)CCCCC4)C1 > 50 mg/mL
